Experiment: DSSTox (CPDBAS) Carcinogenic Potency Database Summary MultiCellCall Results
Conditions: animal carcinogenicity bioassays, multi-cell call summary
Excerpt: The Carcinogenic Potency Database (CPDB) is a unique and widely used international resource of the results of over 6500 chronic, long-term animal cancer tests on over 1500 chemical substances. The CPDB provides easy access to the bioassay literature, with qualitative and quantitative analyses of both positive and negative experiments that have been published over the past 50 years in the general literature and by the National Cancer Institute/National Toxicology Program. […]
Active and inactive are the calls of the source.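 The calls were made as follows: active = tumour findings in long-term animal cancer tests in more than one sex, species or organ; inactive = no tumour finding and more than one negative test.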
Outcomes: active, inactive

>>> label_class("C=C1C/C(=C/C)C(=O)O[C@@H]2CCN3CC=C(COC(=O)[C@@]1(O)CO)[C@H]23")
"active"
>>> label_class("CN(C)C(=O)Nc1cccc(C(F)(F)F)c1")
"inactive"
>>> label_class("Nc1ccc2ccccc2c1")
"active"
>>> label_class("O=C(O)COc1ccc(Cl)cc1Cl")
"inactive"
>>> label_class("NNc1nc(-c2ccc([N+](=O)[O-])cc2)cs1")
"active"
>>> label_class("Oc1ccccc1")
"inactive"
>>> label_class("Cc1[nH]cnc1CSCCN=C(NC#N)N(C)N=O")
"inactive"
>>> label_class("O=NN1CCCC1")
"active"
>>> label_class("CCCCN(CCCC)C(=S)[S-].CCCCN(CCCC)C(=S)[S-].[Zn+2]")
"inactive"
>>> label_class("O=C(CCl)c1ccccc1")
"inactive"
>>> label_class("CC1(C)[C@H](C(=O)O[C@H](C#N)c2cccc(Oc3ccccc3)c2)[C@@H]1C=C(Br)Br")
"inactive"
>>> label_class("FC(F)OC(F)(F)C(F)Cl (stereo not given)")
"inactive"
>>> label_class("CC(O)CO (stereo not given)")
"inactive"
>>> label_class("O=C1c2ccccc2C(=O)c2c(O)cccc21")
"active"
>>> label_class("CC(=O)NN")
"active"
